For each entry below, report its IC50 value.
Tested on: Jurkat cells
Assay: Jurkat toxicity: Cell Titer Glo assay
Assay type: cell-based
Conditions: Homo sapiens, 18 hours

Oc1cccc(Nc2nc(Nc3ccc4c(c3)N=CCO4)ncc2F)c1: 3.74 µM
CNC(=O)c1cc2cc(Nc3ncc(F)c(Nc4cccc(O)c4)n3)ccc2o1: > 4.33 µM
Nc1cccc(Nc2ncc(F)c(Nc3ccc4c(c3)OCCO4)n2)c1: > 4.33 µM

# batch: return IC50 for each of the 2 compounds below
1. CC(C)Oc1ccc(Nc2nc(Nc3cccc(OCCO)c3)ncc2F)cc1
2. NC12OCCON1C(Nc1ccc3oc(CO)cc3c1)=NC=C2F (centres unmarked)

1. 4.05 µM
2. > 5 µM

----------
Tested on: cultured human mast cells (CHMC)
Test: CHMC low cell density ionomycin activation: tryptase assay
Assay type: cell-based
Settings: Homo sapiens, Mast cell, Low Density CHMC, ionomycin activation, hexosaminidase readout; read-out: CHMC Ionomycin Hexos.
pIC50: −log10 of the molar value.
value_type: pIC50

COc1ccc(Nc2nc(Nc3cccc(O)c3)ncc2F)cc1OC: < 5.00
CCOc1ccc(Nc2ncc(F)c(Nc3ccc4c(c3)OCCO4)n2)cc1: < 5.00
CCOc1ccc(Nc2ncc(F)c(Nc3ccc(OC)c(OC)c3)n2)cc1: < 5.00
COc1ccc(Nc2ncc(F)c(Nc3ccc(OC)c(OC)c3)n2)cc1OC: < 5.00
CC(C)(C)c1ccc(Nc2ncc(F)c(Nc3ccc4c(c3)OCCO4)n2)cc1: 5.17

# batch: return pIC50 for each of the 6 molecules below
1. CCOc1ccc(Nc2nc(Nc3cccc(O)c3)ncc2F)cc1
2. Oc1cccc(Nc2ncc(F)c(Nc3cccc(O)c3)n2)c1
3. COc1ccc(Nc2ncc(F)c(Nc3ccc(OC)cc3)n2)cc1
4. CCOc1ccc(Nc2nc(Nc3ccc(OC)c(OC)c3)ncc2F)cc1
5. Fc1cnc(Nc2ccc3c(c2)OCCO3)nc1Nc1ccc2c(c1)OCCO2
6. COc1ccc(Nc2ncc(F)c(Nc3cccc(O)c3)n2)cc1OC

1. 5.17
2. < 5.00
3. < 5.00
4. 5.19
5. < 5.00
6. < 5.00

----------
For each entry below, report its IC50 value.
Tested on: cultured human mast cells (CHMC)
Experiment: CHMC low cell density ionomycin activation: tryptase assay
Type: cell-based
Conditions: Homo sapiens, Mast cell, Low Density CHMC, ionomycin activation, tryptase readout; read-out: CHMC Ionomycin Tryptase

The cases that follow already have their IC50 on record.
Oc1cccc(Nc2cc(Cl)nc(Nc3cccc(O)c3)n2)c1: > 10 µM
Clc1cc(Nc2ccc3c(c2)OCCO3)nc(Nc2ccc3c(c2)OCCO3)n1: 9.4 µM
COc1ccc(-c2ccccc2)cc1Nc1ccnc(Nc2cc(-c3ccccc3)ccc2OC)n1: > 10 µM
Fc1cnc(Nc2cccc(-c3nnn[nH]3)c2)nc1Nc1ccc2c(c1)OCCO2: > 10 µM
Fc1cnc(Nc2ccc(OCc3ccccc3)c(C(F)(F)F)c2)nc1Nc1ccc(OCc2ccccc2)c(C(F)(F)F)c1: > 10 µM

# batch: return IC50 for each of the 2 compounds below
1. COC(=O)C1Cc2cc(Nc3ncc(F)c(Nc4ccc(OC(C)C)cc4)n3)ccc2O1 (stereo not shown)
2. CN1C=COc2cc(Nc3nc(Nc4cccc(O)c4)ncc3F)ccc21

1. 2.41 µM
2. > 10 µM

----------
System: basophils in whole human peripheral blood
Assay: Basophil IgE activation: histamine release assay
Type: cell-based
Conditions: Homo sapiens, anti-IgE activation
value_type: IC50

# batch: return IC50 for each of the 3 compounds below
1. CCOc1ccc(Nc2cc(C(=O)OC)nc(Nc3ccc(OCC)cc3)n2)cc1 [Compound R926058]
2. Fc1cnc(Nc2cccc(Cl)c2)nc1Nc1cccc(Cl)c1 [Compound R926209]
3. Fc1cc(Nc2ncc(F)c(Nc3ccc(C(F)(F)F)c(F)c3)n2)ccc1C(F)(F)F [Compound R926018]

["> 10 µM", "> 10 µM", "> 10 µM"]
